system: SF-295 CNS; test: NCI tumour cell line growth inhibition, 48 h
assay_metric: TGI

Solved entries:
>>> print(df.to_string())
                                   molecule  tested_target  assay_metric  reported_value
0  CC(C)/C=C1\CCC(CN2CCCC2)C1=O (stereo not drawn)     SF-295 CNS           TGI       > 94.5 µM
1  Cc1ccc(S(=O)(=O)N2CCCN(S(=O)(=O)c3ccc(C)cc3)CCN(S(=O)(=O)c3ccc(C)cc3)CCCSCC2)cc1     SF-295 CNS           TGI        > 100 µM
2             N#Cc1c(N2CCCC2)nsc1NCc1ccccc1     SF-295 CNS           TGI        > 100 µM
3  CC[C@]1(O)CC(OC2CC(N(C)C)C(O)C(C)O2)c2c(cc3c(c2O)C(=O)c2c(O)cccc2C3=O)[C@@H]1C(=O)OC (stereo partly drawn)     SF-295 CNS           TGI         3.31 µM
4  CCOC(=O)c1c2c(c(O)c3ccccc3c(O)n(Cc3ccc(OC)cc3)c1C)C(=O)C=CC2=O     SF-295 CNS           TGI        > 100 µM

// returns reported TGI for input CC(C)(C)OC1=C(OC(C)(C)C)C(O)(c2ccccc2)C1=O (stereo not drawn)
> 100 µM

// returns reported TGI for input COc1ccc(/C=C2\CCC(C)C3=C(c4ccc(OC)c(OC)c4)C(C#N)=C(N)OC32)cc1OC (stereo not drawn)
75.9 µM

// returns reported TGI for input "N=C(N)c1ccc(OCc2cccc(COc3ccc(C(=N)N)cc3)c2)cc1"
9.35 µM
